Can you tell me IC50 for the items I'm about to list?
- system name: recombinant eIF4E (Homo sapiens (Human), UniProt P06730)
- Sequence (P06730 whole entry): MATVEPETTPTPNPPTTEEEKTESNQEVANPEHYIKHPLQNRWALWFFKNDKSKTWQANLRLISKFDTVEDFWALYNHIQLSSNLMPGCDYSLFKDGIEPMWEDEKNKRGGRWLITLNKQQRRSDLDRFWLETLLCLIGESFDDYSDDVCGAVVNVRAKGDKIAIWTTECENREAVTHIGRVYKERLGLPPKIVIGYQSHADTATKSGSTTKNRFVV
- protocol summary: Fluorescence polarization competition assay for eIF4E binding potency
- condition label: inhibition of eIF4E/EDA-m7GDP-ATTO-550 binding by 50%; Table 4B calculated values; read-out: IC50
Supply the numeric figure in nM, leaving out any unit text.

Output IC50 of Cc1nc2cnc(N3CCN(C4CC4)CC3)c(C#N)c2c(=O)n1CC#Cc1ccc(Cl)cc1-c1ccnc2c(C(=O)O)csc12 [compound 1162] 21.6

Output IC50 of Cc1nc2cc(OC(F)F)c(CN(C)C)c(C#N)c2c(=O)n1CCOc1ccc(Cl)cc1-c1ccnc2c(C(=O)O)csc12 [compound 531] 42.9

Output IC50 of Cc1nc2cc(C(F)(F)F)cc(C#N)c2c(=O)n1CCOc1ccc(Cl)cc1-c1csc2c(C(=O)O)cccc12 [compound 301] 57.6

Output IC50 of Cc1c(O)c2cc(C(F)(F)F)cc(C#N)c2c(=O)n1CCOc1ccc(Cl)cc1-c1ccnc2c(C(=O)O)csc12 [compound 310] 97.7

Output IC50 of Cc1nc2cc(C(F)(F)F)c(CC3CN(CCF)C3)c(C#N)c2c(=O)n1CCOc1ccc(Cl)cc1-c1ccnc2c(C(=O)O)csc12 [compound 321] 4.89

Output IC50 of Cc1nc2cc(F)c(S(C)(=O)=O)c(C#N)c2c(=O)n1CCOc1ccc(Cl)cc1-c1ccnc2c(C(=O)O)csc12 [compound 279] 17.8

* * *

- system name: recombinant eIF4E (Homo sapiens (Human), UniProt P06730)
- protocol summary: Fluorescence polarization competition assay for eIF4E binding potency
- condition label: inhibition of eIF4E/EDA-m7GDP-ATTO-550 binding by 50%; Table 4B calculated values; read-out: IC50
Can you tell me pIC50 for the items I'm about to list?
Would you please state pIC50, meaning minus log10 of the concentration in mol/L, as a bare number?

Output pIC50 of Cc1nc2cc(CN(C)C)c(OC(F)F)c(C#N)c2c(=O)n1CC#Cc1ccc(Cl)cc1-c1ccnc2c(C(=O)O)csc12 7.98

Output pIC50 of Cc1cc(-c2cc(Cl)ccc2OCCn2c(C)nc3cc(C(F)(F)F)c(-c4ccncc4C)c(C#N)c3c2=O)c2scc(C(=O)O)c2n1 7.34

Output pIC50 of CC(=O)c1cnn2c(-c3cc(Cl)ccc3OCCn3c(C)nc4cc(C(F)(F)F)cc(C#N)c4c3=O)cc(C)nc12 7.69

Output pIC50 of Cc1nc2cnc(N3CC4(CN(CC(F)F)C4)C3)c(C#N)c2c(=O)n1CC#Cc1ccc(Cl)cc1-c1ccnc2c(C(=O)O)csc12 7.70

Output pIC50 of CCc1ncccc1-c1c(C(F)(F)F)cc2nc(C)n(CCOc3ccc(Cl)cc3-c3cc(C)nc4c(C(=O)O)csc34)c(=O)c2c1C#N 8.03

Output pIC50 of Cc1cc(-c2cc(Cl)ccc2OCCn2c(C)nc3cc(-c4cccnc4)c(C)c(C#N)c3c2=O)c2scc(C(=O)O)c2n1 7.28

Output pIC50 of CCc1cc(-c2cc(Cl)ccc2OCCn2c(C)nc3c(C)nc(N)c(C#N)c3c2=O)c2scc(C(=O)O)c2n1 8.82

Output pIC50 of Cc1nc2c(C3CCN(CC(F)(F)F)CC3)ncc(C#N)c2c(=O)n1CCOc1ccc(Cl)cc1-c1ccnc2c(C(=O)O)csc12 8.17

Output pIC50 of COCc1cc(F)c2cc(C)n(CCOc3ccc(Cl)cc3-c3ccnc4c(C(=O)O)csc34)c(=O)c2c1C#N 7.20
